Test system: CV-A24
Assay: Post-treatment assay, antiviral spectrum
Assay type: cell-based, Coxsackievirus A24
Conditions: CVA24; CV-A24, Enterovirus C, drug treatment duration 12 h, RD cells
Source text: We were also interested in the antiviral potential of ZAF-47 against other Enteroviruses. As such, we performed post-treatment assay on RD cells infected with other Enteroviruses such as CV-A16, CV-A6, Echo7, CV-B5, CV-A24 and EV-D68. […] Measurement of the viral titres from collected supernatants was derived from viral plaque assays. […] Subsequent formation of viral plaques was counted manually to quantify the viral titre in PFU/mL […]
pIC50: −log10 of the molar value.
parameter-measured: pIC50

cpd_smiles=CC(=O)OC[C@]1(C)C(=O)CC[C@@]2(C)C(C/C=C3/C(=O)OC[C@@H]3Oc3cccc4cccnc34)=C(C)CC[C@@H]21 target_entity=CV-A24 numeric_value=5.96

###

test system: CV-A16; assay: Post-treatment assay, antiviral spectrum; assay type: cell-based, Coxsackievirus A16; conditions: CVA16; CV-A16, Enterovirus A, drug treatment duration 16 h, RD cells
parameter-measured: IC50 (nM)

compound="CC(=O)OC[C@]1(C)C(=O)CC[C@@]2(C)C(C/C=C3/C(=O)OC[C@@H]3Oc3cccc4cccnc34)=C(C)CC[C@@H]21 [ZAF-47]" numeric_value=1380
